- System: OVCAR-3 ovarian
- test_protocol: NCI tumour cell line growth inhibition, 48 h; in the data active means GI50 below about 0.43 µM; inactive means the rest
Pick from T (active), F (inactive) when you respond.

Reference set (2 entries):
compound | target | category
Cc1cc(N2CCCC2)nc(NC2CCCC(Nc3ccnc4cc(Cl)ccc34)C2)n1 (centres undefined) | OVCAR-3 ovarian | F
O=C([O][Hg][CH2]C1COCC([CH2][Hg][O]C(=O)c2ccccc2)O1)c1ccccc1 (centres undefined) | OVCAR-3 ovarian | F

Consider now this further compound.
Request: Entry NC(=N\N=C/c1cccc([N+](=O)[O-])c1)/C(N)=N\N=C/c1cccc([N+](=O)[O-])c1 : call = ?
Response: F
